- Read-out: Cytochrome P450 3A4 (Homo sapiens)
- test_details: CLD_CYP3A4_48hr: CellzDirect (CLD) Gene Expression Assay for xenobiotic metabolism (CYP3A4) at 48 hours (AID 2283698)
Records with an inconclusive call do not appear. The source made the active and inactive calls. How the source made its calls: active means hit-call score of the fitted dose curve at least 0.9, where 1 is the maximum; inconclusive means response in the unintended direction; inactive means score below 0.9.
Allowed answers: active, inactive

INSERT INTO assay_data (molecule, qualitative_label) VALUES
  ('C#CCC1=C(C)C(OC(=O)C2C(C=C(C)C)C2(C)C)CC1=O (stereo not given)', 'active'),
  ('CC(=NC#N)N(C)Cc1ccc(Cl)nc1', 'inactive'),
  ('CCOC(=O)CC(SP(=O)(OC)OC)C(=O)OCC (stereo not given)', 'active'),
  ('CCCOCC(=Nc1ccc(Cl)cc1C(F)(F)F)n1ccnc1', 'active');

## Input Entry CN(C)C(=O)Nc1cccc(C(F)(F)F)c1 : call = ?
## Output active
